Just for reference, patent US8232407B2 is where these values come from.

I'd be grateful if you could share measured Plutella xylostella Mortality (%) 500 ppm for these entries.
- Tested on: Plutella xylostella
- test details: Insecticidal activities to diamondback moth, feeding dipped leaves
- Assay type: in vivo
- experimental conditions: in vivo
Response body: numeric value in %, unit text excluded.

API: value(readout= Plutella xylostella Mortality (%) 500 ppm, system= Plutella xylostella, query= `O=[N+]([O-])C(=Cc1cc(Br)cs1)C1=NCCCN1Cc1ccc(Cl)nc1` )
100

API: value(readout= Plutella xylostella Mortality (%) 500 ppm, system= Plutella xylostella, query= `O=[N+]([O-])C(=Cc1ccc([N+](=O)[O-])s1)C1=NCCN1Cc1ccc(Cl)nc1` )
100

API: value(readout= Plutella xylostella Mortality (%) 500 ppm, system= Plutella xylostella, query= `Cc1ccc(C=C(C2=NCCN2Cc2ccc(Cl)nc2)[N+](=O)[O-])cn1` )
90.

API: value(readout= Plutella xylostella Mortality (%) 500 ppm, system= Plutella xylostella, query= `O=[N+]([O-])C(=Cc1ccc(Br)o1)C1=NCCN1Cc1cnc(Cl)s1` )
100

API: value(readout= Plutella xylostella Mortality (%) 500 ppm, system= Plutella xylostella, query= O=[N+]([O-])C(=Cc1ccc(Cl)o1)C1=NCCN1CC1CCOC1 (centres unmarked) )
83

API: value(readout= Plutella xylostella Mortality (%) 500 ppm, system= Plutella xylostella, query= O=[N+]([O-])C(=Cc1cc(Br)c(Br)o1)C1=NCCN1CC1CCOC1 (centres unmarked) )
100

API: value(readout= Plutella xylostella Mortality (%) 500 ppm, system= Plutella xylostella, query= `O=[N+]([O-])C(=Cc1oc(Br)cc1Br)C1=NCCN1Cc1ccc(Cl)nc1` )
100

API: value(readout= Plutella xylostella Mortality (%) 500 ppm, system= Plutella xylostella, query= `Cc1coc(C=C(C2=NCCN2Cc2ccc(Cl)nc2)[N+](=O)[O-])c1` )
100

API: value(readout= Plutella xylostella Mortality (%) 500 ppm, system= Plutella xylostella, query= `O=[N+]([O-])C(=Cc1ccc(Cl)o1)C1=NCCCN1Cc1ccc(Cl)nc1` )
100

API: value(readout= Plutella xylostella Mortality (%) 500 ppm, system= Plutella xylostella, query= `C[N+]1=C(C(=Cc2ccoc2)[N+](=O)[O-])N(Cc2ccc(Cl)nc2)CC1.[Cl-]` )
100

API: value(readout= Plutella xylostella Mortality (%) 500 ppm, system= Plutella xylostella, query= CC(=C(C1=NCCN1C(C)c1ccc(Cl)nc1)[N+](=O)[O-])c1cccs1 (racemic) )
100

API: value(readout= Plutella xylostella Mortality (%) 500 ppm, system= Plutella xylostella, query= `Cn1cccc1C=C(C1=NCCN1Cc1ccc(Cl)nc1)[N+](=O)[O-]` )
100

API: value(readout= Plutella xylostella Mortality (%) 500 ppm, system= Plutella xylostella, query= O=[N+]([O-])C(=Cc1ccc([N+](=O)[O-])o1)C1=NCCN1CC1CCOC1 (centres unmarked) )
96

API: value(readout= Plutella xylostella Mortality (%) 500 ppm, system= Plutella xylostella, query= O=[N+]([O-])C(=Cc1ccc(CO)o1)C1=NCCN1CC1CCOC1 (centres unmarked) )
97

API: value(readout= Plutella xylostella Mortality (%) 500 ppm, system= Plutella xylostella, query= `CC[N+]1=C(C(=Cc2ccc(Cl)o2)[N+](=O)[O-])N(Cc2ccc(Cl)nc2)CC1.[Cl-]` )
100

API: value(readout= Plutella xylostella Mortality (%) 500 ppm, system= Plutella xylostella, query= `C[N+]1=C(C(=Cc2ccc([N+](=O)[O-])o2)[N+](=O)[O-])N(Cc2ccc(Cl)nc2)CC1.[Cl-]` )
100

API: value(readout= Plutella xylostella Mortality (%) 500 ppm, system= Plutella xylostella, query= `O=[N+]([O-])C(=Cc1cc(Br)co1)C1=NCCN1Cc1ccccc1` )
85
